// provenance: patent US4575497A

# Test system: Bacillus cereus KB143
# protocol_text: MIC against Bacillus cereus KB143 (D)
# Assay type: cell-based
# cond: Heart infusion agar (pH 7.0)
Entries and their Minimum inhibitory concentration (MIC) values follow.
assay_endpoint: Minimum inhibitory concentration (MIC) (μ g/ml)

1. CCC(=O)OC1CC(=O)OC(C)CC=CC=CC(OC2CCC(N(C)C)C(C)O2)C(C)CC(CC=O)C(OC2OC(C)C(OC3CC(C)(OC(=O)CC)C(OC(C)=O)C(C)O3)C(N(C)C)C2O)C1OC (stereo not drawn)
3.12
2. CCCC(=O)OC1C(C)OC(OC2C(C)OC(OC3C(CC=O)CC(C)C(OC4CCC(N(C)C)C(C)O4)C=CC=CCC(C)OC(=O)CC(OC(=O)CC)C3OC)C(O)C2N(C)C)CC1(C)OC(=O)CC (stereo not drawn)
3.12
3. CCC(=O)OC1(C)CC(OC2C(C)OC(OC3C(CC=O)CC(C)C(OC4CCC(N(C)C)C(C)O4)C=CC=CCC(C)OC(=O)CC(OC(C)=O)C3OC)C(O)C2N(C)C)OC(C)C1OC(C)=O (stereo not drawn)
1.56
